In this section we review reported ETS1 binding intensity values for a set of sequences.
# Target of assay: ETS1 (UniProt P14921)
# Sequence: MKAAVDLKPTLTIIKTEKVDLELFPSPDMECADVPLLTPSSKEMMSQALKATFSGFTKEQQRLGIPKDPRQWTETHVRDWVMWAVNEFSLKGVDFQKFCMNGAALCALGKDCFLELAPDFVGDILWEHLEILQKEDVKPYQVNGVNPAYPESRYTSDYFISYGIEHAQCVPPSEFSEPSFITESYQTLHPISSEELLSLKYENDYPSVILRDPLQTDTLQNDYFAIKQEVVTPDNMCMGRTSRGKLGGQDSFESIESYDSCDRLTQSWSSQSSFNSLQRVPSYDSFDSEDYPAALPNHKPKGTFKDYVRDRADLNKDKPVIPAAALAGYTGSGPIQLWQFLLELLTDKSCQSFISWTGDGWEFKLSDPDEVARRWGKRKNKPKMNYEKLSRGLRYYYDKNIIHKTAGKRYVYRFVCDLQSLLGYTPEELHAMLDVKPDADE
# Protocol: ETS1 binding intensity (PBM fluorescence), ETS1 alone (arbitrary fluorescence units); higher = stronger binding
# Reported conditions: ETS1 concentration 1 nM; RUNX1 concentration 0 nM
Please reply with the number alone, leaving off any unit.

# example entries with known answers
Residue string	Test result
AAAGAGGAAATCACGTACCCGAAAACCACATGCACA	530
CCAGGGCCGGAAGTGCTGGTGGTGGTTTCCATCATG	8960
CAGAGGACAGGATGCCAACCCCAAAACCGCAGCGAC	733
TCAGGAAGTGGTGTGACCAGCATGTGAACCGCGGCA	681
CGGGAGGGGCAGGAAGCGGACTGCGGTGGGGAAGGG	2770

ETS1 binding intensity in this record for GCCACGCAGTTCCCTTCCTGCGGCGTCCTCCACACC : 561

ETS1 binding intensity in this record for TTTCCAGAGGATGTAGCTTCTGCGGGAGAGCTTCAA : 546

ETS1 binding intensity in this record for ACTGAAAACAGCACAGGATGTGGTCTGCCAGGTGCC : 4270

ETS1 binding intensity in this record for GAGCAGTGGTGGGAAATGTGGGGTTGGGGGTAAAGG : 493

ETS1 binding intensity in this record for ACGGTGTGTCTCATTTCCTGTGGGTAACAGGCACCA : 2120

ETS1 binding intensity in this record for TCAGCTGACACAGGAAGTGGTAAAGCTATTATCTGT : 9480

ETS1 binding intensity in this record for GAGCGCAGGACGGAAGCTCGGTGCGGGTGCGGCCTC : 964

ETS1 binding intensity in this record for AGCCTGGCCTCGGCAGGATGTGGGTGTAGGTCATGC : 4780

ETS1 binding intensity in this record for GAGCAAACGGAGGCAGGAAGTGGTTATGTAACTTCA : 7030

====

# Target of assay: ETS1 (UniProt P14921)
# Sequence: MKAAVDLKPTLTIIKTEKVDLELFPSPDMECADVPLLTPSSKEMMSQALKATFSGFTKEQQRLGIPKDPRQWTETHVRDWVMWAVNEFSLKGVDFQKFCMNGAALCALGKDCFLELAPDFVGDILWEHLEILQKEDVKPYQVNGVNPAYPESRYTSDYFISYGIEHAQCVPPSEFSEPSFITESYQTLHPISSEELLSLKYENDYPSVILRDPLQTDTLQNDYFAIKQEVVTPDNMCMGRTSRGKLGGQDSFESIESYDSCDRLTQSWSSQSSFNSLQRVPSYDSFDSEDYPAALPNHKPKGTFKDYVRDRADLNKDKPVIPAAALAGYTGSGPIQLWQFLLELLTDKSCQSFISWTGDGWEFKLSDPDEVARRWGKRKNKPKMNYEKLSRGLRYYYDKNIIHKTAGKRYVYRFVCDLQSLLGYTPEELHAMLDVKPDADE
# Protocol: ETS1 binding intensity (PBM fluorescence), ETS1 alone (arbitrary fluorescence units); higher = stronger binding
# Reported conditions: ETS1 concentration 1 nM; RUNX1 concentration 0 nM
Reported endpoint: ETS1 binding intensity

# example entries with known answers
Residue string	ETS1 binding intensity
CCTGAGCGCCCGGAAGGAAGGCTGTGGTAGGTTGTC	1270
AGGGAACAGGAAATGCAAAAAACCACAAGGGACAAG	2100
AGCTTGCTTCCTGTCCCCAAAACCCACAGCACACGG	688
CTTAAATGGGAAATGTAGGTGTGGTTAAGTCACAAA	558
CTGCACAAGGAAGCGCCTGTGTTGCTGTGGGCGGAG	472

ETS1 binding intensity in this record for TACCACTGAAAGGATGTGCGGGTAGAAATGAGCAAT : 830

ETS1 binding intensity in this record for CCCCTTAGCACAGGATGTGGTCTTTGCATCTTCATT : 4640
